tested on: Yap1 mRNA; test: Antisense inhibition of human Yap1 in A-431 cells by cEt gapmers, single dose (Example 4, RTS4814); format: cell-based; conditions: Table 17; A-431 cells, 5,000 cells per well, free uptake, 2,000 nM, approximately 48 hours; RTS4814; normalized to RIBOGREEN; Yap1 mRNA relative to untreated control cells
Strand notation (5' to 3'): a small letter for the sugar, then the base; units joined by * are phosphorothioate-linked, units joined directly phosphodiester-linked; [ ] holds rarer units or linkages, { } end groups; capitals alone tell only the bases. k = constrained ethyl (cEt); [5mC] = 5-methylcytosine; d = 2'-deoxy (DNA)
# thresholds on YAP1 (% UTC) define classes: low bracket (below 20 % UTC), middle bracket (20 % UTC to below 70 % UTC), high bracket (70 % UTC or more)

>  <substance>
1074275 (antisense k[5mC]*kA*kA*dG*dA*dG*dG*dT*dG*dG*dT*d[5mC]*dT*kT*kG*kT) [Compound 1074275]

>  <system.tested>
Yap1 mRNA

>  <answer.label>
high bracket

$$$$
>  <substance>
1074659 (antisense k[5mC]*kT*kA*dA*dA*dA*d[5mC]*dT*d[5mC]*d[5mC]*dA*dT*d[5mC]*kT*kG*k[5mC]) [Compound 1074659]

>  <system.tested>
Yap1 mRNA

>  <answer.label>
low bracket

$$$$
>  <substance>
1075555 (kG*k[5mC]*k[5mC]*dA*dA*dA*dA*dA*dT*dT*d[5mC]*dT*dT*kG*k[5mC]*kA; antisense) [Compound 1075555]

>  <system.tested>
Yap1 mRNA

>  <answer.label>
high bracket

$$$$
>  <substance>
1076131 (kT*kA*kT*dT*dA*dT*dG*dA*dG*dG*dA*d[5mC]*dT*kG*kA*kT; antisense) [Compound 1076131]

>  <system.tested>
Yap1 mRNA

>  <answer.label>
middle bracket

$$$$
>  <substance>
1074307 (antisense kG*kT*kG*dG*d[5mC]*d[5mC]*dT*d[5mC]*dA*d[5mC]*d[5mC]*dT*dG*k[5mC]*k[5mC]*kG) [Compound 1074307]

>  <system.tested>
Yap1 mRNA

>  <answer.label>
high bracket

$$$$
>  <substance>
1074915 (antisense kA*kG*kT*dT*dA*d[5mC]*dA*dT*d[5mC]*d[5mC]*d[5mC]*dG*dA*kG*kT*kG) [Compound 1074915]

>  <system.tested>
Yap1 mRNA

>  <answer.label>
middle bracket

$$$$
>  <substance>
1074339 (antisense kA*k[5mC]*kT*dG*dG*dA*dT*dT*dT*dT*dG*dA*dG*kT*k[5mC]*k[5mC]) [Compound 1074339]

>  <system.tested>
Yap1 mRNA

>  <answer.label>
middle bracket

$$$$
>  <substance>
1076419 (kA*kT*kA*dT*dA*dA*dT*dA*dA*d[5mC]*d[5mC]*d[5mC]*dA*kT*kT*kG; antisense) [Compound 1076419]

>  <system.tested>
Yap1 mRNA

>  <answer.label>
middle bracket

$$$$
>  <substance>
1074499 (kT*kA*k[5mC]*dA*dA*dT*dA*dA*d[5mC]*d[5mC]*dA*dT*d[5mC]*k[5mC]*k[5mC]*kA; antisense) [Compound 1074499]

>  <system.tested>
Yap1 mRNA

>  <answer.label>
low bracket

$$$$
>  <substance>
1076163 (kG*kA*kT*dA*dT*dA*dA*dG*dT*dT*dA*d[5mC]*d[5mC]*kA*kA*kT; antisense) [Compound 1076163]

>  <system.tested>
Yap1 mRNA

>  <answer.label>
low bracket

$$$$
>  <substance>
1076099 (k[5mC]*k[5mC]*kT*d[5mC]*dA*dA*dA*dA*d[5mC]*dT*dT*dG*dG*kA*kT*kT; antisense) [Compound 1076099]

>  <system.tested>
Yap1 mRNA

>  <answer.label>
middle bracket

$$$$
>  <substance>
1075779 (kG*kT*kA*dT*dT*dA*d[5mC]*dA*dA*dA*d[5mC]*dT*dG*kA*kT*kT; antisense) [Compound 1075779]

>  <system.tested>
Yap1 mRNA

>  <answer.label>
middle bracket

$$$$
>  <substance>
1076035 (kG*kT*kA*dA*dT*dT*dA*dG*dA*dA*dA*d[5mC]*dT*kT*kG*kG; antisense) [Compound 1076035]

>  <system.tested>
Yap1 mRNA

>  <answer.label>
low bracket

$$$$
>  <substance>
1075747 (kA*kT*kT*dT*dA*dG*d[5mC]*dA*dT*dG*dA*dT*dT*kA*kA*k[5mC]; antisense) [Compound 1075747]

>  <system.tested>
Yap1 mRNA

>  <answer.label>
middle bracket

$$$$
>  <substance>
1075491 (antisense kG*kA*k[5mC]*dG*dG*dA*dA*dG*dT*dT*dG*d[5mC]*dA*kA*kG*kG) [Compound 1075491]

>  <system.tested>
Yap1 mRNA

>  <answer.label>
high bracket

$$$$
>  <substance>
1075043 (antisense k[5mC]*k[5mC]*k[5mC]*d[5mC]*dA*dA*dA*dA*dG*d[5mC]*d[5mC]*d[5mC]*dT*kA*k[5mC]*kT) [Compound 1075043]

>  <system.tested>
Yap1 mRNA

>  <answer.label>
high bracket

$$$$
>  <substance>
1074947 (antisense kT*k[5mC]*k[5mC]*dA*dA*dA*dA*d[5mC]*d[5mC]*d[5mC]*dT*dT*dT*kG*kG*kT) [Compound 1074947]

>  <system.tested>
Yap1 mRNA

>  <answer.label>
high bracket

$$$$
>  <substance>
1075171 (antisense k[5mC]*k[5mC]*k[5mC]*d[5mC]*dA*dA*dT*dA*dT*dA*dA*dA*dG*kA*kA*k[5mC]) [Compound 1075171]

>  <system.tested>
Yap1 mRNA

>  <answer.label>
high bracket

$$$$
>  <substance>
1074627 (antisense k[5mC]*k[5mC]*kT*dG*dT*dT*dA*dT*dG*dA*dA*d[5mC]*d[5mC]*k[5mC]*kT*kT) [Compound 1074627]

>  <system.tested>
Yap1 mRNA

>  <answer.label>
low bracket

$$$$
>  <substance>
1075267 (antisense k[5mC]*kT*kA*dT*dT*dT*dA*dG*dA*dA*dT*dA*dA*kG*kT*kG) [Compound 1075267]

>  <system.tested>
Yap1 mRNA

>  <answer.label>
high bracket

$$$$
>  <substance>
1075299 (kG*kA*kT*dA*dA*d[5mC]*d[5mC]*dA*dA*dT*dG*d[5mC]*dA*k[5mC]*k[5mC]*kA; antisense) [Compound 1075299]

>  <system.tested>
Yap1 mRNA

>  <answer.label>
middle bracket

$$$$
>  <substance>
1075587 (k[5mC]*kT*kT*dA*dT*dT*dA*dG*d[5mC]*dA*d[5mC]*d[5mC]*dT*kG*kG*kG; antisense) [Compound 1075587]

>  <system.tested>
Yap1 mRNA

>  <answer.label>
middle bracket

$$$$
>  <substance>
1074755 (CACTTTTACATTAGGA; antisense; chemistry not fully specified) [Compound 1074755]

>  <system.tested>
Yap1 mRNA

>  <answer.label>
low bracket

$$$$
>  <substance>
1074243 (antisense kT*k[5mC]*kT*dG*dA*d[5mC]*d[5mC]*dA*dG*dA*dA*dG*dA*kT*kG*kT) [Compound 1074243]

>  <system.tested>
Yap1 mRNA

>  <answer.label>
middle bracket

$$$$

====

pIC50 reference
system: Yap1 mRNA; experiment: Dose-dependent inhibition of human Yap1 in SNU-449 cells (Example 9, RTS36584); assay type: cell-based; settings: free uptake, linear regression on a log/linear plot
pIC50: −log10 of the molar value. Strand notation (5' to 3'): a small letter for the sugar, then the base; units joined by * are phosphorothioate-linked, units joined directly phosphodiester-linked; [ ] holds rarer units or linkages, { } end groups; capitals alone tell only the bases. e = 2'-O-(2-methoxyethyl) (MOE); k = constrained ethyl (cEt); [5mC] = 5-methylcytosine; d = 2'-deoxy (DNA)

>  <substance>
1198312 (kG*k[5mC]*kA*d[5mC]*dT*dT*dT*dT*dA*d[5mC]*dA*dT*kT*eA*kG*eG) [compound 1198312]

>  <system.tested>
Yap1 mRNA

>  <bound.operator>
=

>  <pIC50>
7.00

$$$$
>  <substance>
1198528 (kT*kA*dA*dA*dG*dT*dG*dT*dA*dT*dG*eT*k[5mC]*eA*kG*eA; antisense) [compound 1198528]

>  <system.tested>
Yap1 mRNA

>  <bound.operator>
=

>  <pIC50>
6.70

$$$$
>  <substance>
958590 (kA*kG*kG*dT*dA*dT*dA*dA*d[5mC]*dT*dG*dG*dG*k[5mC]*kA*kA) [compound 958590]

>  <system.tested>
Yap1 mRNA

>  <bound.operator>
=

>  <pIC50>
7.00

$$$$
>  <substance>
1198623 (CTAAGTAAGGTTTCCC; modified gapmer, further chemistry not given here) [compound 1198623]

>  <system.tested>
Yap1 mRNA

>  <bound.operator>
>

>  <pIC50>
7.52

$$$$
>  <substance>
1074756 (kG*k[5mC]*kA*d[5mC]*dT*dT*dT*dT*dA*d[5mC]*dA*dT*dT*kA*kG*kG) [compound 1074756]

>  <system.tested>
Yap1 mRNA

>  <bound.operator>
>

>  <pIC50>
7.52

$$$$
>  <substance>
1197178 (kA*kA*kT*dT*dG*dT*d[5mC]*dT*d[5mC]*dA*dT*dG*d[5mC]*k[5mC]*kT*kT; antisense) [compound 1197178]

>  <system.tested>
Yap1 mRNA

>  <bound.operator>
=

>  <pIC50>
7.00

$$$$
>  <substance>
1198524 (kT*kG*dT*dA*dT*dG*dT*d[5mC]*dA*dG*dA*eA*kG*eA*kG*eT; antisense) [compound 1198524]

>  <system.tested>
Yap1 mRNA

>  <bound.operator>
>

>  <pIC50>
7.52

$$$$

Every entry's value here was drawn from patent US11214803B2.
